Data origin, for the record: ChEMBL document CHEMBL4715932

Test system: Pseudomonas aeruginosa
Test: Antimicrobial activity against Pseudomonas aeruginosa ATCC 27853 assessed as growth inhibition incubated for 18 hrs
Assay type: functional
quantity.name: MIC80 (µg/mL)
Answer in µg/mL, number only, no unit symbol.

Before answering, review these 3 worked examples.
smiles.input: CC(C)CCOc1ccc(-c2cccc(OCc3cn(C[C@@H](CCCCN)NC(=O)[C@@H](CCCNC(=N)N)n4cc(CC5CCCCC5)nn4)nn3)c2)cc1.Cl.Cl
quantity.name: MIC80
readout.value: 16

smiles.input: CC(C)CCOc1cccc(-c2cccc(OCc3cn(C[C@@H](CCCCN)NC(=O)[C@@H](CCCNC(=N)N)n4cc(CC5CCCCC5)nn4)nn3)c2)c1.Cl.Cl
quantity.name: MIC80
readout.value: 32

smiles.input: CC(C)CCOc1cccc(-c2ccc(OCc3cn(C[C@@H](CCCCN)NC(=O)[C@@H](CCCNC(=N)N)n4cc(CC5CCCCC5)nn4)nn3)cc2)c1.Cl.Cl
quantity.name: MIC80
readout.value: 32

QUERY: What does the record list as MIC80 for `CC(C)CCOc1ccccc1-c1ccccc1OCc1cn(C[C@@H](CCCCN)NC(=O)[C@@H](CCCNC(=N)N)n2cc(CC3CCCCC3)nn2)nn1.Cl.Cl` ?
RESULT: 16

QUERY: Give its MIC80 value. Item: `CC(C)CCOc1cccc(-c2ccccc2OCc2cn(C[C@@H](CCCCN)NC(=O)[C@@H](CCCNC(=N)N)n3cc(CC4CCCCC4)nn3)nn2)c1.Cl.Cl`
RESULT: 8

QUERY: Consider the compound `CC(C)CCOc1ccc(-c2ccccc2OCc2cn(C[C@@H](CCCCN)NC(=O)[C@@H](CCCNC(=N)N)n3cc(CC4CCCCC4)nn3)nn2)cc1.Cl.Cl` and give its measured MIC80.
RESULT: 8

---

Assay: Cytotoxicity against human HEK-293 cells assessed as maximal inhibition at <= 32 ug/ml incubated for 23 hrs by CO-ADD method
Assay type: cell-based, HEK293
Conditions: dose <=32 µg/ml, read-out: Imax
Decision: Emax at 23 h compared against 40%; not below it gives t, below it gives f.

Below are worked cases with known answers.
smiles.input: CC(C)CCOc1ccc(-c2ccccc2OCc2cn(C[C@@H](CCCCN)NC(=O)[C@@H](CCCNC(=N)N)n3cc(CC4CCCCC4)nn3)nn2)cc1.Cl.Cl
group: f
--
smiles.input: CC(C)CCOc1cccc(-c2cccc(OCc3cn(C[C@@H](CCCCN)NC(=O)[C@@H](CCCNC(=N)N)n4cc(CC5CCCCC5)nn4)nn3)c2)c1.Cl.Cl
group: t
--
smiles.input: CC(C)CCOc1ccccc1-c1ccccc1OCc1cn(C[C@@H](CCCCN)NC(=O)[C@@H](CCCNC(=N)N)n2cc(CC3CCCCC3)nn2)nn1.Cl.Cl
group: f

QUERY: Evaluate `CC(C)CCOc1cccc(-c2ccccc2OCc2cn(C[C@@H](CCCCN)NC(=O)[C@@H](CCCNC(=N)N)n3cc(CC4CCCCC4)nn3)nn2)c1.Cl.Cl` : Emax at 23 h at minimum 40%?
RESULT: f
